Values were extracted from patent US20200121677A1.

biological target: human mGlu2 receptor (Homo sapiens); test: [35S]GTPγS binding assay, mGluR2 negative allosteric modulation (membranes from CHO cells transfected with human mGlu2 receptor, glutamate ~EC80 60 μM); details: GTPγS - hmGluR2 anGT pIC50, membranes with human mGlu2 receptor, glutamate ~EC80 (60 μM); pIC50 = -log IC50 (M);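 also: membranes preincubated 30 min at 30 °C with compound plus glutamate, then [35S]GTPγS (0.1 nM) incorporation measured over another 30 min at 30 °C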
Sequence (Q14416 19-872): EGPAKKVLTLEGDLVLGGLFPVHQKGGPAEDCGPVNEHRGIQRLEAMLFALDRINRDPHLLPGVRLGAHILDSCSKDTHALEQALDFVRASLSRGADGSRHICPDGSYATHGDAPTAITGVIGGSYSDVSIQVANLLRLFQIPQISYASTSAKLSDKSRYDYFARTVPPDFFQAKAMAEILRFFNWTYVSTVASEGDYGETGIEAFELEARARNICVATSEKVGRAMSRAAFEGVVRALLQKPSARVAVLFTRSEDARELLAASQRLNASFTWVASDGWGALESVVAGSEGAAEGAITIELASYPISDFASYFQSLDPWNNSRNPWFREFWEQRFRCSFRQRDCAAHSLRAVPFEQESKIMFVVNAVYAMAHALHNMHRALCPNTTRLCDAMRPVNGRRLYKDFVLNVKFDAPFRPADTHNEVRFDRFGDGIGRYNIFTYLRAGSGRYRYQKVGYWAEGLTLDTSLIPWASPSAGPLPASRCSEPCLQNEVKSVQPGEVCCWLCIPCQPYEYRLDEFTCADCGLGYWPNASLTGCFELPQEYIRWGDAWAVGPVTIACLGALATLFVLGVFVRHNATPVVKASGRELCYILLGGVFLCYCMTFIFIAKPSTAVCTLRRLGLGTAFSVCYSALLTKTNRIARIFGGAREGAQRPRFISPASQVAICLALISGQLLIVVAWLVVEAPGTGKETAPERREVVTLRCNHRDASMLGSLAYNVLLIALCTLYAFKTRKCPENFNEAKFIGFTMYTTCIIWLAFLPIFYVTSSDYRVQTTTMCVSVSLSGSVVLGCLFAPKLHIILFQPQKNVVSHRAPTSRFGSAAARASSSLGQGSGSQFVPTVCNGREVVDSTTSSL
assay readout: IC50 (M)

Previously resolved entries follow.
Cc1c(F)cncc1NC(=O)c1cnn2c1C(=O)N(c1ccc(Cl)cc1)C[C@@H]2C    6.17e-09
CC(NC(=O)c1cnn2c1C(=O)N(c1ccc(C(F)(F)F)cc1)C[C@@H]2C)C1CC1 (single isomer, unassigned)    7.08e-08

a = COc1cc(N2C[C@H](C)n3ncc(C(=O)Nc4cncc(C)c4)c3C2=O)ccc1C(F)(F)F
b = COc1cncc(NC(=O)c2cnn3c2C(=O)N(c2ccc(C(F)(F)F)c(C)c2)C[C@@H]3C)c1
c = Cc1ccncc1NC(=O)c1cnn2c1C(=O)N(c1ccc(C(F)(F)F)c(C)c1)C[C@@H]2C
Put these in order: smallest IC50 first, largest last. Write out the labels following the order that was asked for.
c, b, a

I = COc1nc(N2C[C@H](C)n3ncc(C(=O)Nc4ccccc4)c3C2=O)ccc1Cl
II = C[C@H]1CN(c2ccc(C(F)(F)F)cc2)C(=O)c2c(C(=O)Nc3ccncc3F)cnn21
// max by IC50 over [ I , II ] Write the label of whichever entry you select.
I
(I: 1.55e-08 M, II: 3.02e-09 M)
